Recorded measurements of IC50, one per entry
# Tested on: Plasmodium falciparum
# Protocol details: Antiplasmodial activity against chloroquine-, pyrimethamine- and proguanil-resistant Plasmodium falciparum K1 infected in human erythrocytes after 72 hrs by SYBR Green I fluorescence-based method
# Format: functional, organism-based
# Condition context: K1, 72 h
Measured attribute: IC50

Smiles notation | Val
FC(F)(F)c1nc2ccccc2n2cccc12 | > 50 µM
Clc1ccc2c(c1)nc(C(Cl)(Cl)Cl)c1cccn12 | 1.6 µM
Cc1nc2ccccc2n2cccc12 | > 50 µM
N/C(=N/O)c1ccc2c(c1)nc(C(Cl)(Cl)Cl)c1cccn12 | 1.75 µM
ClC(Cl)(Cl)c1nc2ccccc2nc1-c1ccccc1 | 0.2 µM
Cc1ccc2ccccc2n1 | > 50 µM
Cc1ncc2ccccc2n1 | > 50 µM
ClC(Cl)(Cl)c1nc2ccccc2n2cccc12 | 1.5 µM
Cc1ccc2c(c1)nc(C(Cl)(Cl)Cl)c1cccn12 | 2.4 µM
FC(F)(F)c1cnc2ccccc2n1 | > 50 µM
N#Cc1ccc2c(c1)nc(C(Cl)(Cl)Cl)c1cccn12 | 1.5 µM
ClC(Cl)(Cl)c1nc2cc(I)ccc2n2cccc12 | 1.2 µM
ClC(Cl)(Cl)c1ncc2ccccc2n1 | 17.6 µM
O=C(O)c1ccc2c(c1)nc(C(Cl)(Cl)Cl)c1cccn12 | 22 µM
ClC(Cl)(Cl)c1ncnc2ccccc12 | > 50 µM
C[C@H]1c2cccc(O)c2C(=O)C2=C(O)[C@]3(O)C(=O)C(C(N)=O)=C(O)[C@@H](N(C)C)[C@@H]3[C@@H](O)[C@@H]21.O | 6 µM
ClC(Cl)(Cl)c1cnc2ccccc2n1 | 1.5 µM
Cc1cnc2ccccc2n1 | > 50 µM
COc1ccc2c(c1)nc(C(Cl)(Cl)Cl)c1cccn12 | 4.2 µM
Cc1nccc2ccccc12 | > 50 µM
ClC(Cl)(Cl)c1nccc2ccccc12 | 8 µM
Cc1nc2cc(C#N)ccc2n2cccc12 | > 50 µM
c1ccc2nccnc2c1 | > 50 µM
Fc1ccc2c(c1)nc(C(Cl)(Cl)Cl)c1cccn12 | 1.7 µM
Cc1ccc2c(c1)nc(C)c1cccn12 | > 50 µM
ClC(Cl)c1cnc2ccccc2n1 | 12.8 µM

Source: ChEMBL document CHEMBL3286299
